Data origin, for the record: PubChem BioAssay (NCI)

System: EKVX NSCLC
test.description: NCI tumour cell line growth inhibition, 384-well format
Below is a list of entries, each paired with its recorded GI50 value.

>>> result("Cc1sc2c(c1C)C(c1ccc(Cl)cc1)=N[C@@H](CC(=O)Nc1ccc(O)cc1)c1nnc(C)n1-2")
"3.09 µM"

Given `CO[C@H]1/C=C/C[C@H](C)[C@@H](C)S(=O)(=O)NC(=O)c2ccc3c(c2)N(C[C@@H]2CC[C@H]21)C[C@@]1(CCCc2cc(Cl)ccc21)CO3` , respond with its GI50. 1.98 µM

Given `COc1cc2c(cc1-c1c(C)noc1C)ncc1[nH]c(=O)n([C@H](C)c3ccccn3)c12` , respond with its GI50. 27.7 µM

Given `CO[C@@]12[C@H](COC(N)=O)C3=C(C(=O)C(C)=C(N)C3=O)N1C[C@@H]1N[C@@H]12` , respond with its GI50. 4.52 µM
